# credit: paper PMC3218832

Target: RELA (p65) subunit of heterodimer;p50 subunit (Homo sapiens;Homo sapiens, UniProt Q04206;P19838 1-307;7-356)
Sequence (Q04206 1-307, chain 1 of 2): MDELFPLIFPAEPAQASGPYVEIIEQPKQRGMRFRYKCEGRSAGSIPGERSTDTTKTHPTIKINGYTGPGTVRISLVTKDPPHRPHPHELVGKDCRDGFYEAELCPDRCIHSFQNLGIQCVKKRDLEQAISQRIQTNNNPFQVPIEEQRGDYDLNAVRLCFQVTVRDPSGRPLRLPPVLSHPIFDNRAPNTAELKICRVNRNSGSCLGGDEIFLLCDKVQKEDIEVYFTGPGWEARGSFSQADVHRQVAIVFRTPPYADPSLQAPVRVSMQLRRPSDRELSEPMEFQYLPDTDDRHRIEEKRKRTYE
Sequence (P19838 7-356, chain 2 of 2): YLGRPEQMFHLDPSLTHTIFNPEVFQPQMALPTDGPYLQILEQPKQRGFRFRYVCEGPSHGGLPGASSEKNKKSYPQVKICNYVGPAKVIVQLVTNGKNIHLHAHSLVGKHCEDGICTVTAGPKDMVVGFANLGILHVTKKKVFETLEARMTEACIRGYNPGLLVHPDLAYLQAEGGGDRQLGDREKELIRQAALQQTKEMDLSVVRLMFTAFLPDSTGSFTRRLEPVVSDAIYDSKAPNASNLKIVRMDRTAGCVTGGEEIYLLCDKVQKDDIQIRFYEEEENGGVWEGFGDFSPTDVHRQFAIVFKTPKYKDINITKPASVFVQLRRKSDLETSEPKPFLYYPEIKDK
Assay: protein binding microarray; high values mean tight binding
Conditions: dsDNA, one strand shown

| sequence-chain | binding signal |
| --- | --- |
| CGAAGTGTCCT | -0.957 z-score |
| GAAAAGGCCCC | 0.289 z-score |
| AAATTTCCCCC | 2.63 z-score |
| GGAGTCCTCCC | -0.571 z-score |
| AAGTGGGCCCT | -0.886 z-score |
| CAGTGGGTCCT | -1.1 z-score |
| GAGGGTTCCCT | -0.238 z-score |
| AAGATAATCCT | -1.04 z-score |
| GGGAGTGTCCT | 0.0362 z-score |
| GGATGGCTCCT | -1.07 z-score |
| GAAGATTTCCT | -0.241 z-score |
| GGGGAGGTCCT | 0.275 z-score |
| CGAGTGACCCT | -0.827 z-score |
| CGGGAACCCCC | 2.47 z-score |
| AAAGTGGTCCC | -0.319 z-score |
| CAAATGCCCCT | 1.2 z-score |
| CAATACTTCCT | -0.687 z-score |
| GGGAACCCCCC | 2.69 z-score |
| AGAAACTTCCC | 0.846 z-score |
| CAGAAGTCCCT | 1.88 z-score |
